SYSTEM: SIRT1 (Homo sapiens, UniProt Q96EB6)
Sequence (Q96EB6 1-747): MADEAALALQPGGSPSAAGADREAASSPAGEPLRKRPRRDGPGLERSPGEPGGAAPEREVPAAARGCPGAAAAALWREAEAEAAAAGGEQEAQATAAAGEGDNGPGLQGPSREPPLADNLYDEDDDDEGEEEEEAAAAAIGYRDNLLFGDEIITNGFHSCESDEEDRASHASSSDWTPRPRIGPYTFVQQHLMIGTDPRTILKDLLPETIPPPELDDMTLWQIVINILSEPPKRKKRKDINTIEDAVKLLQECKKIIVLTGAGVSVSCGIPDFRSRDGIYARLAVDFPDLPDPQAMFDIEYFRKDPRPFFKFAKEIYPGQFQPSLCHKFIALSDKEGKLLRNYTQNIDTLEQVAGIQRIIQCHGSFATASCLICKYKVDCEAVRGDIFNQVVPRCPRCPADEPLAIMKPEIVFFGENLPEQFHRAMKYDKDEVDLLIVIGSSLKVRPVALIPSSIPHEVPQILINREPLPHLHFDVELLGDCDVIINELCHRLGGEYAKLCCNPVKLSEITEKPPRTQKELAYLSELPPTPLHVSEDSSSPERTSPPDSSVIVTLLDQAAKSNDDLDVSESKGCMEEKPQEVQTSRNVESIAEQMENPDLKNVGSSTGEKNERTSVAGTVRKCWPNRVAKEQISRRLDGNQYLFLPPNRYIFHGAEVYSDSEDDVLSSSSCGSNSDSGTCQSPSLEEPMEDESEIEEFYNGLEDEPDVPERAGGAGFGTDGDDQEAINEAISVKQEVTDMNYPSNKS
ASSAY_SUMMARY: TAMRA based mass spectrometry assay of SIRT1 activity
Type: biochemical
EXPERIMENTAL_PARAMETERS: concentration of test compound giving 150% activation of SIRT1; TAMRA peptide substrate
REPORTED_METRIC: TAMRA EC1.5 (μM)

Solved cases below.
>>> print(df.to_string())
                                   compound                                system   reported_metric     endpoint_value
0  Cc1ncccc1NC(=O)c1cnc2ccc(-c3ccccc3C(F)(F)F)nn12 [Compound 113]  SIRT1 (Homo sapiens, UniProt Q96EB6)  TAMRA EC1.5 (μM)  B (EC1.5 1-25 μM)
1  O=C(Nc1ccnc(N2CCC2)c1)c1cnc2ccc(-c3c(F)cccc3Cl)nn12 [Compound 165]  SIRT1 (Homo sapiens, UniProt Q96EB6)  TAMRA EC1.5 (μM)  B (EC1.5 1-25 μM)
2  O=C(Nc1cnccn1)c1cnc2ccc(-c3c(F)cccc3F)nn12 [Compound 171]  SIRT1 (Homo sapiens, UniProt Q96EB6)  TAMRA EC1.5 (μM)    C (EC1.5>25 μM)
3  Cn1ccc(NC(=O)c2cnc3ccc(-c4ccccc4C(F)(F)F)nn23)n1 [Compound 112]  SIRT1 (Homo sapiens, UniProt Q96EB6)  TAMRA EC1.5 (μM)  B (EC1.5 1-25 μM)
4  CS(=O)(=O)c1ccccc1-c1ccc2ncc(C(=O)Nc3ccncc3)n2n1 [Compound 187]  SIRT1 (Homo sapiens, UniProt Q96EB6)  TAMRA EC1.5 (μM)    C (EC1.5>25 μM)

Provide the documented TAMRA EC1.5 (μM) with SIRT1 (Homo sapiens, UniProt Q96EB6) as the system for Cn1cc(-c2ccc3ncc(C(=O)Nc4cccc(N5CCOCC5)n4)n3n2)cn1 [Compound 56]
B (EC1.5 1-25 μM)

---

SYSTEM: SIRT1 (Homo sapiens, UniProt Q96EB6)
ASSAY_SUMMARY: Trp mass spectrometry assay of SIRT1 activity
Type: biochemical
EXPERIMENTAL_PARAMETERS: Trp peptide substrate; concentration giving 150% activation of SIRT1
REPORTED_METRIC: Trp EC1.5

The examples below pair each entry with its known result.
                                   compound     endpoint_value
0  COc1cccc(C(=O)Nc2cnn3ccc(-c4ccccc4C(F)(F)F)nc23)n1     A (EC1.5<1 μM)
1  Cc1cc(NC(=O)c2c(C)nc3c(C)cc(-c4ccccc4OC(F)(F)F)nn23)ccn1     A (EC1.5<1 μM)
2  Cc1cc(C)nc(C(=O)Nc2cnc3ccc(N4CC[C@H](F)C4)nn23)c1  B (EC1.5 1-25 μM)
3  Cc1cc(-c2ccccc2C(F)(F)F)nn2c(C(=O)Nc3ccc(F)cn3)cnc12  B (EC1.5 1-25 μM)
4  Cc1cc(-c2ccccc2C(F)(F)F)nn2c(NC(=O)c3cccc(N4CCOCC4)n3)cnc12     A (EC1.5<1 μM)
5  Cc1cc(-c2ccccc2C(F)(F)F)nn2c(C(=O)Nc3cccnn3)cnc12     A (EC1.5<1 μM)

Entry O=C(Nc1ccncc1F)c1cnn2ccc(-c3ccccc3C(F)(F)F)nc12 has what Trp EC1.5?
B (EC1.5 1-25 μM)

Suppose we examine the compound Cc1nc2ccc(-c3ccccc3OC(F)(F)F)nn2c1C(=O)Nc1ccccn1 ; what Trp EC1.5 value has been reported?
A (EC1.5<1 μM)

What value of Trp EC1.5 has been reported for the following compound? COc1nccc(NC(=O)c2cnc3ccc(-c4ccccc4OC(F)(F)F)nn23)n1
A (EC1.5<1 μM)

---

Consider the following compounds and their measured Emax readings.
SYSTEM: UniProtKB Q96EB6
ASSAY_SUMMARY: Trp mass spectrometry assay of SIRT1 activity
Type: biochemical
EXPERIMENTAL_PARAMETERS: Trp assay; percent maximum fold activation; read-out: Trp % Fold Act

// known answers, use as guide
In [3]: df
Out[3]:
                                   compound  reported_metric  endpoint_value
0      O=C(Nc1cccnc1)c1cnc2ccc(N3CCCC3)nn12             Emax          < 350%
1  CC1(C)CCN(c2ccc3ncc(C(=O)Nc4ccncn4)n3n2)C1             Emax          < 350%
2  Cc1nc2ccc(N3CCC(F)(F)C3)nn2c1C(=O)Nc1cccnc1             Emax          ≥ 350%
3  Cc1ncccc1NC(=O)c1cnn2ccc(-c3ccccc3OC(F)(F)F)nc12             Emax          ≥ 350%
4  O=C(Nc1ccccn1)c1cnc2ccc(N3CCC(F)(F)CC3)nn12             Emax          ≥ 350%
5  COc1cc(NC(=O)c2cnc3ccc(-c4ccccc4C(F)(F)F)nn23)ncn1             Emax          < 350%
6  O=C(Nc1cccnn1)c1cnc2ccc(N3CCCC(C(F)(F)F)C3)nn12 (centres unmarked)             Emax          ≥ 350%
7  Cc1nn2ccc(-c3ccccc3C(F)(F)F)nc2c1C(=O)Nc1cccnn1             Emax          ≥ 350%

Record O=C(Nc1cccnc1)c1cnc2ccc(N3CCCC(C(F)(F)F)C3)nn12 (centres unmarked) : what is its Emax with UniProtKB Q96EB6?
≥ 350%

API: value(readout= Emax, system= UniProtKB Q96EB6, query= Cc1cc(C)nc(C(=O)Nc2cnc3ccc(-c4ccccc4C(F)(F)F)nn23)n1 )
< 350%

Which Emax is reported with UniProtKB Q96EB6 for this entry: O=C(Nc1ccccn1)c1cnc2ccc(N3CC[C@H](O)C3)nn12 ?
< 350%

Lab request: please report Emax under test system UniProtKB Q96EB6 for O=C(Nc1cnccn1)c1cnc2ccc(N3CCC(F)(F)C3)nn12
< 350%

What measured Emax is associated with Cc1cnc(C(=O)Nc2c(C)nc3ccc(-c4ccccc4Cl)nn23)s1 on UniProtKB Q96EB6?
< 350%

Item: O=C(Nc1ccc(F)cn1)c1cnc2ccc(N3CC[C@H](O)C3)nn12 Test system: UniProtKB Q96EB6 Read-out: Emax Value: ?
< 350%

---

Entries and their measured Emax follow.
SYSTEM: SIRT1 (Homo sapiens)
Sequence (Q96EB6 1-747): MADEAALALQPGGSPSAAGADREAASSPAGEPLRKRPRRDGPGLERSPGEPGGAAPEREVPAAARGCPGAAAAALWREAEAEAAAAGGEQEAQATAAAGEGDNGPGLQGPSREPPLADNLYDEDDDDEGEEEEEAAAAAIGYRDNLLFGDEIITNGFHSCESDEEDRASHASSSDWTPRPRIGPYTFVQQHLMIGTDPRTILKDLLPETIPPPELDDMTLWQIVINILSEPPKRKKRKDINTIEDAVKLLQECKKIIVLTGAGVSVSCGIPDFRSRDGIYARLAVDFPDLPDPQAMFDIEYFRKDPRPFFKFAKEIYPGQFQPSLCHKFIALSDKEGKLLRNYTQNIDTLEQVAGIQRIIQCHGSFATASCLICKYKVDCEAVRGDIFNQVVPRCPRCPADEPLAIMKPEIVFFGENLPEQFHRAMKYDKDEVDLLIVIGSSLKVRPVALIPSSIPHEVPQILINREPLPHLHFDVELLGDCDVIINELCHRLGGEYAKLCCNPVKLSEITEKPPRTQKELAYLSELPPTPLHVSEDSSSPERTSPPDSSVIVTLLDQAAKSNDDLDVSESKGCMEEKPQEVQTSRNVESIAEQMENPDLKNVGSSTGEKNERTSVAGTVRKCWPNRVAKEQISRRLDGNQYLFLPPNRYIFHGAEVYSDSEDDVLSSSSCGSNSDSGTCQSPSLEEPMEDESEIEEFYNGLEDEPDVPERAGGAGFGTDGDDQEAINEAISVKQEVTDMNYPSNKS
ASSAY_SUMMARY: Trp mass spectrometry assay of SIRT1 activity
Format: biochemical
EXPERIMENTAL_PARAMETERS: Trp assay; percent maximum fold activation; read-out: Trp % Fold Act

Known Emax results, listed for orientation:
In [3]: df
Out[3]:
                                   molecule  endpoint_value
0  Cc1cccc(-c2ccc3nc(C)c(C(=O)Nc4ccc(C)nn4)n3n2)c1          < 350%
1  Cc1cc(C)nc(NC(=O)c2c(C)nc3c(OC[C@H](O)CO)cc(-c4ccccc4C(F)(F)F)nn23)c1          ≥ 350%
2  Cc1nc(C(=O)Nc2cnc3ccc(-c4ccccc4OC(F)(F)F)nn23)cs1          < 350%
3  Cc1ccc(NC(=O)c2c(C)nn3ccc(-c4ccccc4C(F)(F)F)nc23)c(C)n1          ≥ 350%
4  O=C(Nc1ccncc1F)c1cnc2ccc(N3CC(F)(F)C3)nn12          < 350%

Consider the molecule Cc1nc2ccc(-c3cccc(OC[C@H](O)CO)c3)nn2c1C(=O)Nc1ccc(F)cn1 and give its measured Emax.
< 350%

Entry Cc1cncc(NC(=O)c2c(C)nn3ccc(-c4ccccc4Br)nc23)c1 : reported Emax = ?
< 350%

Can you share its Emax? I mean this molecule: O=C(Nc1cnc2ccc(-c3ccccc3OC(F)(F)F)nn12)c1cccc(OCC(O)CO)n1 (stereo not drawn)
≥ 350%

What measured Emax goes with Cc1ccnc(NC(=O)c2cnn3ccc(-c4ccccc4OC(F)(F)F)nc23)c1 ?
< 350%
